Biological target: Muscarinic acetylcholine receptor M1 (Homo sapiens) (UniProt P11229)
Sequence (P11229 whole entry): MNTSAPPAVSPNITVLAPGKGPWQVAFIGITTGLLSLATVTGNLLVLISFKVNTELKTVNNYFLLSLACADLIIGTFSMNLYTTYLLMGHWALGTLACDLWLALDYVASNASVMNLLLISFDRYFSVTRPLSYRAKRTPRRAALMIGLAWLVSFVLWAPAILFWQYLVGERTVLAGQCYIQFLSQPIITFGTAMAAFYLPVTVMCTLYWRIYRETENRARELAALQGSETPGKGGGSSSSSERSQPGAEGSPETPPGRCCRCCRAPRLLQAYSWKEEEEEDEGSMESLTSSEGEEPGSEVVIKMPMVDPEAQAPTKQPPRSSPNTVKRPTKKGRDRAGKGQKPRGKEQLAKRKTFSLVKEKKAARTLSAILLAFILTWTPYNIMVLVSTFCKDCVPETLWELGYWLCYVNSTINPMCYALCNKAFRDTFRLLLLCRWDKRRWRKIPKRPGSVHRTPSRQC
Conditions: NIH3T3
Description: Agonistic efficacy in human m1 muscarinic receptor expressed with the marker gene beta-galactosidase in NIH 3T3 cells.
Could you please report measured ED50 for the items listed next?
The answer is to be given in nM; state only the numeric part.

Entry COc1cccc(C#C/C(C)=C/CO/N=C2\CN3CCC2C3)c1 (stereo not given) — recorded ED50 = 93.2

Entry COc1cccc(C#C/C(C)=C\CO/N=C2\CN3CCC2C3)c1 (stereo not given) — recorded ED50 = 51.1

Entry C/C(C#Cc1ccc(Cl)cc1)=C/CO/N=C1/CN2CCC1C2 (stereo not given) — recorded ED50 = 29.1

Entry C/C(C#Cc1ccc(C)cc1)=C/CO/N=C1/CN2CCC1C2 (stereo not given) — recorded ED50 = 83.3

Entry COc1ccc(C#C/C(C)=C\CO/N=C2/CN3CCC2C3)cc1 (stereo not given) — recorded ED50 = 8.6

----------
Target: Muscarinic acetylcholine receptor M1 (Homo sapiens) (UniProt P11229)
Conditions: NIH3T3
Could you please report measured ED50 for the items listed next?
The answer is to be given in nM; state only the numeric part.

Entry C/C(C#Cc1cccs1)=C/CO/N=C1\CN2CCC1C2 (configuration not stated) — recorded ED50 = 6.2

Entry COc1ccc(C#C/C(C)=C/CO/N=C2\CN3CCC2C3)cc1OC (configuration not stated) — recorded ED50 = 74

Entry C#C/C(C)=C\CO/N=C1\CN2CCC1C2 (configuration not stated) — recorded ED50 = 12

Entry C/C(C#Cc1ccc(C)cc1)=C/CO/N=C1\CN2CCC1C2 (configuration not stated) — recorded ED50 = 10.5

Entry COc1ccc(C#C/C(C)=C\CO/N=C2\CN3CCC2C3)cc1 (configuration not stated) — recorded ED50 = 8.5

Entry C/C(C#Cc1ccc(F)cc1)=C/CO/N=C1\CN2CCC1C2 (configuration not stated) — recorded ED50 = 20.9

Entry C/C(C#Cc1ccc(F)cc1)=C\CO/N=C1/CN2CCC1C2 (configuration not stated) — recorded ED50 = 156

Entry C/C(C#Cc1cccs1)=C/CO/N=C1/CN2CCC1C2 (configuration not stated) — recorded ED50 = 11.6

Entry COc1ccc(C#C/C(C)=C\CO/N=C2/CN3CCC2C3)cc1OC (configuration not stated) — recorded ED50 = 162

Entry C/C(C#Cc1cccs1)=C\CO/N=C1\CN2CCC1C2 (configuration not stated) — recorded ED50 = 0.4

Entry COc1cccc(C#C/C(C)=C/CO/N=C2/CN3CCC2C3)c1 (configuration not stated) — recorded ED50 = 264

Entry C#C/C(C)=C\CO/N=C1/CN2CCC1C2 (configuration not stated) — recorded ED50 = 30

----------
Target: Muscarinic acetylcholine receptor M2 (Homo sapiens) (UniProt P08172)
Sequence (P08172 whole entry): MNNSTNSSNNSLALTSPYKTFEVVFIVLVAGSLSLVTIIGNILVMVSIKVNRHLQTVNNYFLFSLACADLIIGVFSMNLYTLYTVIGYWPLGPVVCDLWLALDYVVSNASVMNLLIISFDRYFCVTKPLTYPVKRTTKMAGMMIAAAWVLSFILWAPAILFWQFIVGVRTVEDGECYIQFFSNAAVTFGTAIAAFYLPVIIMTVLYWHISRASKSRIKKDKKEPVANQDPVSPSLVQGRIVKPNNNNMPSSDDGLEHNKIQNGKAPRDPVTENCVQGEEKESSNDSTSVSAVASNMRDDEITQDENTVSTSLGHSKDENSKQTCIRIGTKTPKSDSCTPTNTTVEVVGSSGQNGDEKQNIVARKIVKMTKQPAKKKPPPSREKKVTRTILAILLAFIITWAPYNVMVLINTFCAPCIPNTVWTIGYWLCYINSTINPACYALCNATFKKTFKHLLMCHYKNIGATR
Details: NIH3T3
Description: Agonistic efficacy in human m2 muscarinic receptor expressed with the marker gene beta-galactosidase in NIH 3T3 cells.
Could you please report measured ED50 for the items listed next?
The answer is to be given in nM; state only the numeric part.

Entry C#C/C(C)=C\CO/N=C1\CN2CCC1C2 (centres undefined) — recorded ED50 = 23.7

Entry COc1ccc(C#C/C(C)=C\CO/N=C2\CN3CCC2C3)cc1 (centres undefined) — recorded ED50 = 8.9

Entry C/C(C#Cc1ccc(Cl)c(Cl)c1)=C\CO/N=C1\CN2CCC1C2 (centres undefined) — recorded ED50 = 940

Entry C#C/C(C)=C/CO/N=C1\CN2CCC1C2 (centres undefined) — recorded ED50 = 11
